target: heparin-induced aggregated tau (aTau), full-length 2N4R human Tau (Homo sapiens, UniProt P10636); construct: transformed with a full-length 2N4R tau expression plasmid; assay: In vitro fluorometric aTau binding assay; details: 0.04 μM aTau, serially diluted compound 10 to 0.00017 μM, 37° C. 1 hour, fluorescence
Sequence (P10636 1-441 isoform P10636-8): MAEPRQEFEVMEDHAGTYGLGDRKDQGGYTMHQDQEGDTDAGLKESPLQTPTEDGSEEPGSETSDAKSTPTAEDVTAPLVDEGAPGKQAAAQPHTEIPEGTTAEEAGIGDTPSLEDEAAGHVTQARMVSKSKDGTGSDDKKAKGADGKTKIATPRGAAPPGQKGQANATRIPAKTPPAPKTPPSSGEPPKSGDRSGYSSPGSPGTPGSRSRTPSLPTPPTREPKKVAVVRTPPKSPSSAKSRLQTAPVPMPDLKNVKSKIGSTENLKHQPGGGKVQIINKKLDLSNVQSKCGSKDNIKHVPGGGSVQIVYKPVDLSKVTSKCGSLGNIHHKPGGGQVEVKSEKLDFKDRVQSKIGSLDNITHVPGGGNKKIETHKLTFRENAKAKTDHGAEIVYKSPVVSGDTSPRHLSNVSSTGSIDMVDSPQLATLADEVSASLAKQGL
RECORDED ENDPOINT: pKd
The quantity pKd is defined as the negative base-10 logarithm of the molar concentration.

Here is how some compounds turned out for pKd.
>>> numeric_readout("CN(C)c1ccc(-c2ccc(-c3cn4cc(OCCOCCOCCOCCOCCOCCOc5ccc6c(c5)C(=O)N(C5CCC(=O)NC5=O)C6=O)ccc4n3)cc2)c(F)n1 (stereo not shown)")
6.82
>>> numeric_readout("CN(C)c1ccc(-c2ccc(-c3nc4ccc(NCCOCCOc5ccc6c(c5)CN(C5CCC(=O)NC5=O)C6=O)cc4s3)cc2)cn1 (stereo not shown)")
7.10
>>> numeric_readout("CN(C)c1ccc2nc(-c3ccc(-c4ccc(NCCOCCOCCOCCOCCOCCOc5ccc6c(c5)C(=O)N(C5CCC(=O)NC5=O)C6=O)nc4)cc3)sc2c1 (stereo not shown)")
6.64

Inquiry: Looking for the measured pKd of CN(C)c1ccc(-c2ccc(-c3nc4ccc(NCCOCCOCCOCCOCCOCCOc5ccc6c(c5)C(=O)N(C5CCC(=O)NC5=O)C6=O)cc4s3)cc2)cn1 (stereo not shown) , can you help?
Reply text: 7.00

---

biological target: Tau aggregates in P301L-Tau-FL-GFP HEK293 cells (Homo sapiens, UniProt P10636, P618L); construct: express full-length human tau T40 (2N4R) carrying the P301L mutation with a GFP tag; expressed in transfected cells; assay: Tau degradation assay (APNmAb005 ELISA-based Tau aggregation assay); format: cell-based; conditions: 1 μM of compound, 24 hours, P301L-Tau-FL-GFP HEK293 cells seeded with rTg4510 brain lysate; read-out: Activity (reduction of tau aggregates)
Sequence (P10636 1-441 isoform P10636-8 P301L): as the sequence (P10636 1-441 isoform P10636-8) above, with P301L counted along it
RECORDED ENDPOINT: inhibition at 1 µM

Here is how some molecules turned out for inhibition at 1 µM.
>>> result("COc1ccc2nc(-c3ccc(-c4ccnc(NCCOCCOc5ccc6c(c5)CN(C5CCC(=O)NC5=O)C6=O)c4)cc3)cn2c1 (stereo not drawn) [Compound 162640]")
"10 to 20%"
>>> result("CN(C)c1ccc2nc(-c3ccc(-c4ccc(NCCOCCOc5ccc6c(c5)CN(C5CCC(=O)NC5=O)C6=O)nc4)cc3C(F)(F)F)sc2c1 (stereo not drawn) [Compound 177031]")
"< 10%"
>>> result("CN(C)c1ccc(-c2ccc(-c3nc4ccc(OCCOCCOc5ccc6c(c5)CN(C5CCC(=O)NC5=O)C6=O)cc4s3)c(C(F)(F)F)c2)cn1 (stereo not drawn) [Compound 162903]")
"10 to 20%"

Inquiry: Please state recorded inhibition at 1 µM (tested on Tau aggregates in P301L-Tau-FL-GFP HEK293 cells (Homo sapiens, UniProt P10636, P618L)) of CN(C)c1ccc(-c2ccc(-c3nc4ccc(OCCOCCOc5ccc6c(c5)CN(C5CCC(=O)NC5=O)C6=O)cc4s3)cc2)cn1 (stereo not drawn) [Compound 163123]
Reply text: 10 to 20%

Inquiry: Please state recorded inhibition at 1 µM (tested on Tau aggregates in P301L-Tau-FL-GFP HEK293 cells (Homo sapiens, UniProt P10636, P618L)) of CN(C)c1ccc(-c2ccc(-c3nc4ccc(OCCOCCOCCOc5ccc6c(c5)CN(C5CCC(=O)NC5=O)C6=O)cc4s3)c(C(F)(F)F)c2)cn1 (stereo not drawn) [Compound 174251]
Reply text: < 10%

Inquiry: Please state recorded inhibition at 1 µM (tested on Tau aggregates in P301L-Tau-FL-GFP HEK293 cells (Homo sapiens, UniProt P10636, P618L)) of CN(C)c1ccc(-c2ccc(-c3cn4cc(OCCOCCN5C(=O)CCC(N6C(=O)c7ccc(O)cc7C6=O)C5=O)ccc4n3)cc2)c(F)n1 (stereo not drawn) [Compound 170350]
Reply text: 10 to 20%
